The measured values listed here are drawn from PubChem BioAssay.

Assay: budding yeast growth changes without added modifier – OD600, strain BY4716, 24 h, basal condition, primary screen (AID 1173)
Details: S. cerevisiae BY4716 growth, OD600, 24 h; higher = more signal, called active from +8 up or from −8 down
Property: z-score
Give the figure only, with no unit attached.

Take a look at these entries with their results.
get_value(item= COCCOC(=O)N1C(=O)[C@@]2(c3ccccc31)[C@H](c1ccc(OCCO)cc1)N1[C@H](c3ccccc3)[C@H](c3ccccc3)OC(=O)[C@H]1[C@@H]2C(=O)N1CCc2cc(OC)c(OC)cc2C1 , readout=z-score) returns 1.57

Input C=CCN1Cc2ccccc2[C@@H]2OC(c3ccc(OCCCO)cc3)=N[C@]2(CCS(=O)(=O)c2ccccc2)C1=O . Output z-score: 1.28

Short answer for CCCCC(=C=CC[C@@H](O)c1cccc(OCCO)c1)C[C@@H](O)c1ccccn1 : z-score was -1.56

Form field z-score, entry CN1CCC(CCCO)=CC1c1cccs1 (stereo not given) : -0.158

Further cases:
Summary for this compound, CC(C)CN1C(=O)[C@@]2(c3ccc([N+](=O)[O-])cc3)CC(=O)N(C3CCCCC3)[C@@H]2c2ccc(CO)cc21 : z-score is 0.669

Please fill in: z-score reported for COCCOC(=O)N1C(=O)[C@@]2(c3cc(C#CC4=CCCCC4)ccc31)[C@H](c1ccc(OCCO)cc1)N1[C@H](c3ccccc3)[C@H](c3ccccc3)OC(=O)[C@H]1[C@@H]2C(=O)N1CCc2cc(OC)c(OC)cc2C1 = 0.683

# compound COCCCNC(=O)[C@@H]1c2ccccc2C(=O)N(Cc2ccccc2OC)[C@H]1c1ccc(CO)cc1 ; its z-score = -0.993

Field z-score (entry CO[C@H]1O[C@H](CO)[C@@H](OC(=O)Nc2ccccc2-c2ccccc2)[C@H](OC(=O)Nc2ccccc2-c2ccccc2)[C@@H]1OC(=O)Nc1ccccc1-c1ccccc1 ) reads -0.652

Entry CCOC(=O)C1=CC[C@H]2C(=O)N(c3ccccc3)C(=O)[C@@H]12 — recorded z-score = 0.206

----------
Test: compound effects on multiple myeloma cell viability – MM1S, calcein-AM fluorescence, 48 h, basal, profiling panel (AID 1165);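 note: viability of MM1S multiple myeloma cells under basal unstimulated conditions; test concentration not given here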
Settings: higher = more signal
param class (str): category from z-score; see ranges c1: < -2; c2: ≥ -2 and < -0.4; c3: ≥ -0.4

Before answering, review these 8 worked examples.
Exercise: Category lookup for the compound C=CCNC(=O)[C@@H]1[C@H]2C(=O)O[C@H](c3ccccc3)[C@H](c3ccccc3)N2[C@H](c2ccc(OCCO)cc2)[C@@]12C(=O)N(C(=O)OCCOC)c1ccc(C#CCC(C(=O)OC)C(=O)OC)cc12
Key: c2

Exercise: Sort into band: CCN(CC)c1ccc(N2CC=CC34O[C@@H]5/C=C\CCC(C)OC(=O)C5[C@H]3C(=O)N(CCCCCO)[C@@H]4C2=O)cc1 (some centres undefined)
Key: c3

Exercise: // return the class label for CCOC(=O)C1=C[C@@H](C(C)C)N(S(=O)(=O)c2ccc(C)cc2)[C@H]1c1ccccc1F
Key: c2

Exercise: Note: place this compound into its band. Item: CCOC(=O)C1=CCC(c2ccc(F)cc2)N(S(=O)(=O)c2ccc(C)cc2)C1 (centres undefined)
Key: c2

Exercise: Please indicate the class for COc1ccc([Si](C)(C)[C@@H]2[C@@H](CC(=O)N3Cc4ccccc4C[C@H]3CO)O[C@]3(C(=O)N(Cc4cccc(N5CCC5=O)c4)c4ccccc43)[C@H]2C)cc1 based on its z-score.
Key: c1

Exercise: Determine which band this compound sits in: O=C1[C@@]23C=C(Br)[C@H](C[C@@H]2COC3)[C@]12CO2
Key: c1

Exercise: Form: Item = CCCCC(=C=CC[C@H](O)c1cccc(OCCO)c1)C[C@H](O)c1ccccn1 ; Class = ?
Key: c2

Exercise: Please indicate the class for COc1ccc(C(O)C2C=CC3C(=O)N(C)C(=O)C3N2N(c2ccccc2)c2ccccc2)c2ccccc12 (centres undefined) based on its z-score.
Key: c3

Others:
Exercise: Class label required: C=C(CCCC)/C(=C/C[C@@H](OC(C)=O)c1ccccc1OCCO)c1cc(C(=O)OC)ccc1OC
Key: c1

Exercise: Category lookup for the compound COC(=O)C[C@H]1O[C@@H](CCc2ccccc2)[C@@H](C)[C@@H]1[Si](C)(C)c1ccc(OC)cc1
Key: c2

Exercise: Which bin should I file O=C1O[C@@H](c2ccccc2)[C@@H](c2ccccc2)N2[C@@H](c3ccc(OCCO)cc3)[C@]3(C(=O)Nc4ccc(C#CC5=CCCCC5)cc43)[C@@H](C(=O)N3CCCCCCC3)[C@H]12 under?
Key: c2

Exercise: Hey, which category is COCCOC(=O)N1C(=O)[C@@]2(c3cc(C#CCCO)ccc31)[C@H](c1ccc(O)cc1)N1[C@H](c3ccccc3)[C@H](c3ccccc3)OC(=O)[C@H]1[C@@H]2C(=O)N1CCN(c2ncccn2)CC1 in, do you know?
Key: c3

Exercise: Dear colleague, I would appreciate it if you could identify the bin for COc1ccc(C(=O)Nc2cccc(CN3C(=O)[C@]4(O[C@H](CCn5cc(CCO)nn5)[C@@H]([Si](C)(C)c5ccc(OC)cc5)[C@@H]4C)c4ccccc43)c2)cc1 and reply at your convenience.
Key: c1

Exercise: Field: class (z-score) — entry: O=C1N(CCS(=O)(=O)c2ccccc2)c2ccccc2[C@@H]2OC(c3ccc(OCCCO)cc3)=N[C@]12Cc1ccccc1
Key: c1
